- experimental.system: acetylcholine receptor
- assay.info: SPR, AchR immobilised on CM5 chip, peptide 10 uM
Overview of recorded Binding affinity (RU) for various binders
Express your answer in RU, writing the number without its unit.

{"columns": ["binder", "readout.value"],
 "data": [
  ["RKEHGK [6mer-1-1041]", 23],
  ["KKESDK [6mer-1-984]", 33],
  ["RHKMRK [6mer-2-691]", 15],
  ["KRYNVR [6mer-1-1060]", 21],
  ["RICGRK [6mer-2-767]", 13]
]}

# query: Binding affinity (RU) of entry RKHSHR [6mer-1-1004]
41

# Binding affinity (RU) lookup, item KITARR [6mer-2-771]
26

// Binding affinity (RU) lookup, key: RKTSIK [6mer-1-945]
31
